Value source: patent US20260042764A1

# test-system: Avi-KRAS G12V (1-169) GppNHp/RAF1 RBD-3xFLAG (52-151) (Homo sapiens, UniProt P01116, G12V)
# Construct: Avi-KRAS G12V (1-169)
# Sequence (P01116 1-169 isoform P01116-2 G12V): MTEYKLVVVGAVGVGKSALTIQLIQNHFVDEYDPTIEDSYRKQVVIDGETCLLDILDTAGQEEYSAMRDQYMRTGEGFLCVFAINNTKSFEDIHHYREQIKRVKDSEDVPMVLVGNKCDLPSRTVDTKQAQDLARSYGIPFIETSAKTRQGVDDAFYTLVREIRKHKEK
# test-protocol: Raf1-KRAS G12V-GppNHP disruption HTRF assay (Biological Example 1)
# Format: binding
# experimental-context: KRAS G12V-GppNHp/RAF1 RBD HTRF
pIC50: −log10 of the molar value.
Item-by-item account of pIC50

compound: CCN(c1nc(OC[C@@]23CCCN2C[C@H](F)C3)nc2c(F)c(-c3ccc(F)c4sc(N)c(C#N)c34)c(C(F)(F)F)cc12)[C@H]1CCN(C(=O)C2CC2)C1
assay-value: 6.00 to 7.00
//
compound: C[C@@H]1[C@H](N(C)c2nc(OC[C@@]34CCCN3C[C@H](F)C4)nc3c(F)c(-c4ccc(F)c5sc(N)c(C#N)c45)c(C(F)(F)F)cc23)CCN1C(=O)C(C)(C)F
assay-value: 5.00 to 6.00
//
compound: CN(c1nc(OC[C@@]23CCCN2C[C@H](F)C3)nc2c(F)c(-c3ccc(F)c4sc(N)c(C#N)c34)c(C(F)(F)F)cc12)[C@@H]1CC(=O)N(Cc2ccccc2)C1
assay-value: 6.00 to 7.00
//
compound: N#Cc1c(N)sc2c(F)ccc(-c3c(C(F)(F)F)cc4c(N5CCCC[C@@H](O)C5)nc(OC[C@@]56CCCN5C[C@H](F)C6)nc4c3F)c12
assay-value: 6.00 to 7.00
//
compound: CN(c1nc(OC[C@@]23CCCN2C[C@H](F)C3)nc2c(F)c(-c3ccc(F)c4sc(N)c(C#N)c34)c(C(F)(F)F)cc12)[C@@H]1CC[C@H](O)C1
assay-value: 5.00 to 6.00
//
compound: CCN(c1nc(OC[C@@]23CCCN2C[C@H](F)C3)nc2c(F)c(-c3ccc(F)c4sc(N)c(C#N)c34)c(C(F)(F)F)cc12)[C@H]1CCN(C(=O)C2(C#N)CC2)C1
assay-value: > 7.00

Now, please, on to the next compound.
Input line: Complete the entry with pIC50 for CN(C)C(=O)c1nn2c(c1Cl)CN(c1nc(OC[C@@]34CCCN3C[C@H](F)C4)nc3c(F)c(-c4ccc(F)c5sc(N)c(C#N)c45)c(C(F)(F)F)cc13)CC2
Output line: > 7.00
